Recorded IC50, one value per entry.
tested on: Human immunodeficiency virus 1; assay: Antiviral activity against R5 tropic HIV1 HXB2 infected in human TZM-bl cells assessed as inhibition of virus-induced cytopathic effect; assay type: functional, organism-based; details: Human immunodeficiency virus 1, HXB2, TZM-bl
Peptide text beside a SMILES is read from it.

Compound | IC50, µM
C[C@@H]1[C@H](O)[C@@H](C)/C=C/C=C/C=C/C=C/C=C/C=C/C=C/[C@H](O[C@@H]2O[C@H](C)[C@@H](O)[C@H](N)[C@@H]2O)C[C@@H]2O[C@](O)(C[C@@H](O)C[C@@H](O)[C@H](O)CC[C@@H](O)C[C@@H](O)CC(=O)O[C@H]1C)C[C@H](O)[C@H]2C(=O)O [AMPHOTERICIN B] | 0.175
CC[C@H](C)[C@H](NC(=O)[C@H](CS)NC(=O)[C@@H](NC(=O)[C@H](C)NC(=O)[C@H](CS)NC(=O)[C@@H]1CCCN1C(=O)[C@@H](NC(=O)CNC(=O)[C@H](Cc1c[nH]c2ccccc12)NC(=O)[C@H](CCC(=O)O)NC(=O)[C@H](CO)NC(=O)[C@H](CC(C)C)NC(=O)[C@H](CCC(=O)O)NC(=O)[C@@H](NC(=O)[C@@H](NC(=O)[C@@H](NC(=O)[C@@H](N)CC(=O)O)[C@@H](C)O)C(C)C)C(C)C)C(C)C)[C@@H](C)O)C(=O)N[C@@H](CC(C)C)C(=O)O (H-DTVVELSEWGVPCATCIL-OH) | 39.9
CC[C@H](C)[C@H](NC(=O)[C@H](C)NC(=O)[C@H](CCC(N)=O)NC(=O)[C@@H](CS)NC(=O)[C@H](Cc1ccccc1)NC(=O)[C@H](C)NC(=O)[C@@H]1CCCN1C(=O)[C@@H](N)CC(C)C)C(=O)NCC(=O)N[C@@H](Cc1c[nH]c2ccccc12)C(=O)NCC(=O)N[C@@H](CC(=O)O)C(=O)N1CCC[C@H]1C(=O)N[C@H](C(=O)N[C@H](C(=O)N[C@@H](Cc1cnc[nH]1)C(=O)N[C@@H](Cc1c[nH]c2ccccc12)C(=O)N[C@@H](CO)C(=O)O)[C@@H](C)O)[C@@H](C)CC | 46
CC(C)C[C@H](NC(=O)[C@H](CC(C)C)NC(=O)[C@@H](NC(=O)[C@@H](NC(=O)[C@H](CC(N)=O)NC(=O)CNC(=O)[C@H](CCCNC(=N)N)NC(=O)[C@H](CC(=O)O)NC(=O)[C@H](Cc1c[nH]c2ccccc12)NC(=O)[C@@H](NC(=O)[C@H](CCCCN)NC(=O)[C@H](CCC(=O)O)NC(=O)CNC(=O)[C@@H](N)[C@@H](C)O)C(C)C)C(C)C)[C@@H](C)O)C(=O)N[C@@H](CS)C(=O)N[C@@H](CC(=O)O)C(=O)N[C@@H](CS)C(=O)N1CCC[C@H]1C(=O)O (H-TGEKVWDRGNVTLLCDCP-OH) | 162
